GI50 for assorted molecules
- Test system: A498
- protocol: NCI tumour cell line growth inhibition, 48 h
Active and inactive are the calls of the source. No stated cut-off is given here; in the data, active = GI50 up to about 1.1 µM and inactive = higher.
parameter_measured: GI50

> print(dat)
                                    molecule  target.or.test.system               result
 1  NNC(=O)C(O)C(O)C(=O)NN (stereo unspecified)                   A498  > 100 µM (inactive)
 2  CCCCSC(=CC(=O)c1cccc(C(=O)C=C(SCCCC)SCCCC)n1)SCCCC                   A498  > 100 µM (inactive)
 3  CN1CC2(CCCCC2)C(O)C12C=CCCC2 (stereo unspecified)                   A498  > 100 µM (inactive)
 4  Cc1cccc(NC(=O)/C=C/c2ccc([N+](=O)[O-])cc2)c1                   A498  > 100 µM (inactive)
 5  c1ccc2c(-c3cnc(-c4c[nH]c5ccccc45)cn3)c[nH]c2c1                   A498  > 100 µM (inactive)
 6  CN(C)CCNC(=O)c1cccc2nc3c(nc12)-c1ccccc1C3=O                   A498   14.4 µM (inactive)
 7  C=C1C(=O)OC2C[C@H](C)C3CC(=O)C(C)=C3CC12 (stereo partly specified)                   A498   19.5 µM (inactive)
 8  CCCCCCCCCCCC1NC(N)=NC(CCCO)=C1C(=O)OC (stereo unspecified)                   A498   14.6 µM (inactive)
 9  COc1cccc2c1C(=O)c1c(O)c3c(c(O)c1C2=O)C[C@@](O)(C(C)=O)C[C@@H]3OC1OC(C)C(O)C(N)C1Br (stereo partly specified)                   A498    0.133 µM (active)
10  COc1cc2c(c(OC)c1OC)-c1ccc(SC)cc1C(O)CC2 (stereo unspecified)                   A498   12.1 µM (inactive)
11            CCCCCCCC/C=C\CCCCCCCCCCCC(=O)O                   A498    0.891 µM (active)

###

- Test system: SK-MEL-28
- protocol: NCI tumour cell line growth inhibition, 48 h
Calls of active or inactive are those of the source. Cut-off read from the data, not from the text of the source: active = GI50 up to about 1.1 µM and inactive = higher.
Classes used: 1.0 (active), 0.0 (inactive)

molecule	cat
CCCOC(=O)C1C2CCC(O2)C1C(=O)O (stereo not given)	0.0
Cc1nc(-n2nc(-c3ccccc3)cc2-c2ccccc2)sc1C(/C=C/c1ccc([N+](=O)[O-])cc1)=N/NC(N)=S	0.0
OCC12C3C4C1C1C2C3C41CO (stereo not given)	0.0
CCN(CC)c1ncnc2c1ncn2CCNC(CO)(CO)CO	0.0
Cn1c(=O)cc2[nH]c3ccccc3n2c1=O	0.0
Cc1cc(=O)n(-c2cc3cccccc-3n2)[nH]1	0.0
C=CCN1CN(C2CCCCC2)CSC1=S	0.0
O=C1CCC2(c3ccc(F)cc3)Nc3ncccc3N12 (stereo not given)	0.0
CC(=O)O[C@@H]1C[C@@]2(C)[C@@H]3CC=C4[C@@H](C[C@H](O)C(=O)C4(C)C)[C@]3(C)C(=O)C[C@]2(C)[C@H]1[C@@](C)(O)C(=O)/C=C/C(C)(C)OC(C)=O	1.0
CCCCCCC(O)C(O)CCC(O)C1CCC(CCCCC(O)CC2=CC(C)OC2=O)O1 (stereo not given)	0.0
